- test target: Kit (Homo sapiens, UniProt P10721)
- Sequence (P10721 26-976): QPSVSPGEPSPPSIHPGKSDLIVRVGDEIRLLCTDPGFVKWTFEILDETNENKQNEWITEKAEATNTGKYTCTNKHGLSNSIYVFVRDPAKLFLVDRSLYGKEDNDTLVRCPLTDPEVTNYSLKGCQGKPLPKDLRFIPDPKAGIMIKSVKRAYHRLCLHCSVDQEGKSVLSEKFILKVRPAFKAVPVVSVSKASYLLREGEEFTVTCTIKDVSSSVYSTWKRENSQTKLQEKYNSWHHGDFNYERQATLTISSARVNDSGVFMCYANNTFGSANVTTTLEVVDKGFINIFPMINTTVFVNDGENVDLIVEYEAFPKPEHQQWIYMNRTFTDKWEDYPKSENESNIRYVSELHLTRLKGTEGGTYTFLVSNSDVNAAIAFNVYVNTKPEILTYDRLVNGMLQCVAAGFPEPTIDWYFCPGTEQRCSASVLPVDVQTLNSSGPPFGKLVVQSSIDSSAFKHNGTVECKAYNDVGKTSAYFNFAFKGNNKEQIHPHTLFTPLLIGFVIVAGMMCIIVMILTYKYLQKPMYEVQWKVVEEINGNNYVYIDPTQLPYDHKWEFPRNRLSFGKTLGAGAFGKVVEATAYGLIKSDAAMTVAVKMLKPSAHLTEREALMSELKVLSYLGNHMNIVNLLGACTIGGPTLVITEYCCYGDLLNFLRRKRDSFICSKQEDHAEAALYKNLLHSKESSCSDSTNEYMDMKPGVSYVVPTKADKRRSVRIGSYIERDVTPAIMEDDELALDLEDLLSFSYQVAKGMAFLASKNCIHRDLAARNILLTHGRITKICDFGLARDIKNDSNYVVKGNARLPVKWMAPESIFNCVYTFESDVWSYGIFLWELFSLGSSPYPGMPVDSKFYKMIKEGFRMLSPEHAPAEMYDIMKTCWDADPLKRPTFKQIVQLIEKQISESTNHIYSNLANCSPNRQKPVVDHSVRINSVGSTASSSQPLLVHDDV
- measurement protocol: Z'-Lyte biochemical kinase assay (SelectScreen), Kit
- condition details: at 50 nM, in duplicate
- Method: A biochemical assay was performed in order to measure the protein kinase inhibition. The kinase binding assays were performed against different kinases using the SelectScreen Biochemical Kinase Profiling Service® platform (Thermo Fisher Scientific). For all kinases, the Z′-Lyte® biochemical kinase assay technology was used. Inhibitions were measured at 50 nM in duplicate for each compound and are reported in percentage.
The following compounds are listed with their measured inhibition at 0.05 µM values.

Previously resolved entries follow.
CN(C)c1ccc2c(Oc3cccc(C(=O)NCc4ccncc4)c3)ccnc2c1 ... 3%
COc1cc2nccc(Oc3cccc(C(=O)NCC4CCCCC4)c3)c2cc1OC ... 26%
Cc1c(Oc2ccnc3cc(N(C)C)ccc23)cccc1C(=O)NCc1cccc(F)c1 ... 3%

Problem: May I ask what inhibition at 0.05 µM has been recorded for COc1ccc2c(Oc3cc(C(=O)NCc4ccncc4)ccc3F)ccnc2c1 ?
Solution: 5%

Problem: May I ask what inhibition at 0.05 µM has been recorded for COc1cc2nccc(Oc3cccc(C(=O)NCc4cccc(F)c4)c3C)c2cc1OC ?
Solution: 11%
